Assay: S. cerevisiae RM11-1a growth modifiers, primary screen, strain RM11-1a, OD600, basal, 24 h (AID 1177);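 also: cultures grown under basal conditions with no added stressor; test concentration not given here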
Settings: OD600, 24 h, higher = more signal, called active from +8 up or from −8 down
Form field: z-score (one value per entry).
The answer should be written as a number, with no unit following it.

COc1ccc(C#Cc2ccc3c(c2)[C@]2(C(=O)N3)[C@H](C(=O)N3CCCCCCC3)[C@H]3C(=O)O[C@H](c4ccccc4)[C@H](c4ccccc4)N3[C@@H]2c2ccc(O)cc2)cc1    0.136
COCCOC(=O)N1C(=O)[C@@]2(c3cc(C#CC4(O)CCCCCC4)ccc31)[C@H](c1ccc(OCCO)cc1)N1[C@H](c3ccccc3)[C@H](c3ccccc3)OC(=O)[C@H]1[C@@H]2C(=O)Nc1nc2ccccc2s1    2.43
COc1ccc([Si](C)(C)[C@H]2[C@H](CCO)O[C@@]3(C(=O)N(Cc4ccc(N5C(=O)c6ccccc6Oc6ccccc65)cc4)c4ccccc43)[C@@H]2C)cc1    4.11

What value of z-score has been recorded for this entry: CC1(C)C(=O)C(c2ccccc2)=C2CN3C(=O)N(CCc4ccccc4)C(=O)C3(Cc3ccc(C(F)(F)F)cc3)C=C21 (centres undefined)
1.9

How about this compound: [N-]=[N+]=NCc1ccccc1[C@@H]1OC(c2ccc(OCCCO)cc2)=N[C@]1(Cc1ccccc1N=[N+]=[N-])C(=O)N1CCCCC1
1.09

Another compound: O=C1C2C=CC(C(O)c3ccc(I)cc3)N(Nc3ccccc3)C2C(=O)N1c1ccccc1 (centres undefined)
-0.208

What do we get for COCCOC(=O)N1C(=O)[C@@]2(c3cc(C#CCNC(N)=O)ccc31)[C@H](c1ccc(OCCO)cc1)N1[C@H](c3ccccc3)[C@H](c3ccccc3)OC(=O)[C@H]1[C@@H]2C(N)=O ?
2.4

What do we get for C=C(C)[C@@H]1CC=C(C(O)C2C=CC3C(=O)N(c4ccccc4)C(=O)C3N2Nc2ccc(C#N)cc2)CC1 (some centres undefined) ?
0.556

----------
Test system: Inhibin beta A chain (activin A)
Experiment: INHBA (activin A) binders on microarrays, primary screen, biochemical, small-molecule microarray, 635 nm fluorescence scan (AID 1107);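 also: mouse activin A protein probed at 4.33 µg/mL on printed slides; score merges bound-protein fluorescence near 667 nm with spot signal-to-noise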
Conditions: small-molecule microarray binding, higher = more signal
Everything with composite z-score lower than 0.8 is False; everything else, including exactly 0.8, is True.

Worked examples, 4 compounds total:
C=CCC(OC(C)=O)[C@@H]1[C@@H](N(Cc2cccc3ccccc23)C(=O)c2cccc3ccccc23)c2cc(OCCCO)ccc2N1C(=O)c1ccc2ccccc2c1 (stereo not given in full)    True
[N-]=[N+]=Nc1ccccc1C[C@]1(C(=O)O)N=C(c2ccc(OCCCO)cc2)O[C@H]1c1ccccc1    True
Cc1ccc(C(C)CC(O)C2C=CC3C(=O)N(c4ccccc4)C(=O)C3N2Nc2ccc(C#N)cc2)o1 (stereo not given)    False
C=C(COC)/C(=C/C[C@H](OC(C)=O)c1cccc(OCCO)c1)c1cnc2ccccc2c1    True

Decide: composite z-score of COC(=O)[C@@]1(Cc2ccc(F)cc2)[C@H]2c3cc(C(=O)N(C)C)n(Cc4ccc(O)c(OC)c4)c3C[C@H]2CN1C(=O)c1ccccc1 >= 0.8?
True

For C=C[C@@H](OC)[C@H](OC(=O)Nc1ccc(OC)cc1)c1ccc(OC)c(O)c1 then?
False

How about this compound: C=CCNC(=O)[C@H]1[C@@H]2C(=O)O[C@@H](c3ccccc3)[C@@H](c3ccccc3)N2[C@@H](c2ccc(OCCO)cc2)[C@]12C(=O)N(C(=O)OCCOC)c1ccc(C#Cc3ccc(OC)cc3)cc12
False

Next compound: CCOC(=O)C=Cc1ccccc1O
False

Next compound: COC(=O)C(CC#Cc1ccc2c(c1)[C@]1(C(=O)N2)[C@H](c2ccc(O)cc2)N2[C@H](c3ccccc3)[C@H](c3ccccc3)OC(=O)[C@H]2[C@@H]1C(=O)N1CCCCCCC1)C(=O)OC
True

Follow-up item: COCCCNC(=O)[C@@]1(c2ccc([N+](=O)[O-])cc2)CC(=O)N(C(C)C)[C@@H]1c1ccc(CO)cc1
True

Query [N-]=[N+]=Nc1ccccc1[C@@H]1OC(c2ccc(OCCCO)cc2)=N[C@]1(Cc1ccccc1)C(=O)NCc1ccccc1 next
False

What do you get for CN1C=C(C(=O)OCCS(C)(=O)=O)C(C(=O)OCCS(C)(=O)=O)=CC(c2ccc(CO)cc2)=CC1c1cccs1 (stereo not given) ?
True

Another: CN1C(=O)C2C(C1=O)C1C=C(CCCO)C2C(C2CC2)N1Cc1cc2c(cc1Br)OCO2 (stereo not given)
True

// repeat for O=C(NCC(O)CO)[C@@]1(CCS(=O)(=O)c2ccccc2)COC(c2ccc(OCCCO)cc2)=N1 (stereo not given in full) and report
True

Follow-up entry: CN1C(=O)C2C=CC(C(O)c3ccc(I)cc3)N(Nc3ccccc3)C2C1=O (stereo not given)
True
